test system: DU-145 prostate; assay: NCI-60 one-dose screen, 48 h (100 = growth as untreated, 0 = no growth, -100 = all killed); settings: 10 µM unless noted
About 83,000 compounds went through this panel and 20% of them were active in at least one assay; those are over-represented in the sample as a whole.
MEASUREMENT_LABEL: growth (%)
Give a bare numeral; the unit % is implied.

Worked cases, answers included:
[
  {
    "STRUCTURE_AS_SMILES": "CN1CCN(c2ccc3c(c2)nc(NNC(=O)c2cnccn2)c2cccn23)CC1",
    "TARGET_OR_SYSTEM": "DU-145 prostate",
    "UNIT_NAME": "%",
    "ASSAY_VALUE": 27.3
  },
  {
    "STRUCTURE_AS_SMILES": "CC[C@H](CC[C@@H](C)[C@H]1CC[C@H]2[C@@H]3CC[C@@H]4CC(=O)/C(=C\\c5ccncc5)C[C@]4(C)[C@H]3CC[C@]12C)C(C)C",
    "TARGET_OR_SYSTEM": "DU-145 prostate",
    "UNIT_NAME": "%",
    "ASSAY_VALUE": 109
  },
  {
    "STRUCTURE_AS_SMILES": "Cc1nn(-c2ccccc2)c(/N=C/N(C)C)c1/C=C/C(=O)c1ccc(Cl)cc1",
    "TARGET_OR_SYSTEM": "DU-145 prostate",
    "UNIT_NAME": "%",
    "ASSAY_VALUE": 122
  },
  {
    "STRUCTURE_AS_SMILES": "CCOC(=O)N1CCN(S(=O)(=O)c2oc(-c3ccc(Cl)cc3)nc2C#N)CC1",
    "TARGET_OR_SYSTEM": "DU-145 prostate",
    "UNIT_NAME": "%",
    "ASSAY_VALUE": 103
  },
  {
    "STRUCTURE_AS_SMILES": "COc1cc2oc(-c3cccc(NC(=O)c4ccc5c(c4)OCO5)c3)cc(=O)c2c(OC)c1OC",
    "TARGET_OR_SYSTEM": "DU-145 prostate",
    "UNIT_NAME": "%",
    "ASSAY_VALUE": 52.9
  }
]

Please indicate growth recorded for N#Cc1nc(-c2ccc(F)cc2)oc1S(=O)(=O)N1CCN(c2ccc(F)cc2)CC1
102

Return value of growth for input C#CC#CC#CC#CC#CC#CC#CC#CC[C@H]1OC[C@@H](COC(=O)O[C@@H](C(=O)O[C@H]2C[C@@]3(O)[C@@H](OC(=O)c4ccccc4)[C@@H]4[C@]5(OC(C)=O)CO[C@@H]5C[C@H](O)[C@@]4(C)C(=O)[C@H](OC(C)=O)C(=C2C)C3(C)C)[C@@H](NC(=O)c2ccccc2)c2ccccc2)O1 , no commentary.
41.1

====

test system: OVCAR-8 ovarian; experiment: NCI-60 one-dose screen, 48 h (100 = growth as untreated, 0 = no growth, -100 = all killed); conditions: 10 µM unless noted
About 83,000 compounds went through this panel and 20% of them were active in at least one assay; those are over-represented in the sample as a whole.
MEASUREMENT_LABEL: growth (%)
State just the number; it will be interpreted in %.

[
  {
    "MOLECULE": "Cc1ccc(/C=C/C(=O)c2ccc(NC(=O)CSc3nc4c([nH]3)c(=O)n(C)c(=O)n4C)cc2)c(C)c1",
    "UNIT_NAME": "%",
    "growth": 40.3
  }
]

# return growth for O=C(N/N=C/c1ccc(Cl)cc1Cl)c1ccc2nc(-c3ccc(Cl)cc3)[nH]c2c1 , test system: OVCAR-8 ovarian
14.2

Give growth only, for CCC/C(=N\NC(N)=O)C(OC)OC , using OVCAR-8 ovarian data.
98.6

Give the observed growth of CCCCCCC(=O)Nc1ncc(Cc2ccc(C)cc2)s1 for OVCAR-8 ovarian.
45.5

Return reported growth for target or system OVCAR-8 ovarian, item Cn1cc(-c2nn3cc(-c4ccccc4)nc3s2)c2ccccc21 .
89.4

Report growth from OVCAR-8 ovarian testing of O=C(CCl)Nc1ccc2c(Nc3cc(O)ccc3Cl)ncnc2c1
-33.9

Write down the reported growth (system: OVCAR-8 ovarian) of COc1ccc(-c2cn(-c3ccc(Cl)cc3)c(SCC(=O)c3ccc([N+](=O)[O-])cc3)n2)cc1
51.8

====

Recorded measurements of growth, one per entry
test system: BT-549 breast; test: NCI-60 one-dose screen, 48 h (100 = growth as untreated, 0 = no growth, -100 = all killed); settings: 10 µM unless noted
Compounds without any hit were thinned out: in the full panel of roughly 83,000, 20% have a hit. Activity calls are given as the source filed them. The calls were made as follows: active = growth percent below 10; inactive = the rest.

Recorded results for 3 compounds are shown here.
[
  {
    "COMPOUND": "CC(CN)[C@@H]1CC[C@]2(CO)CC[C@]3(C)[C@H](CC[C@@H]4[C@@]5(C)CCC(N)C(C)(C)[C@@H]5CC[C@]43C)[C@@H]12 (stereo partly specified)",
    "TARGET_OR_SYSTEM": "BT-549 breast",
    "growth": "44.9% (inactive)"
  },
  {
    "COMPOUND": "Cc1c2ccccc2nc2c1ccc1cccnc12",
    "TARGET_OR_SYSTEM": "BT-549 breast",
    "growth": "96.3% (inactive)"
  },
  {
    "COMPOUND": "OC(c1ccccc1)(c1ccccc1)c1ccccc1-c1ccccc1",
    "TARGET_OR_SYSTEM": "BT-549 breast",
    "growth": "104% (inactive)"
  }
]

Please report the measured growth for C=CCOC(=O)C1=C(C)NC(=O)NC1c1c(Cl)n(C)c2ccccc12 (stereo unspecified)
99.1% (inactive)

# return recorded growth for entry Cn1cccc1/C=C1\C(=O)Nc2ccccc21
89.6% (inactive)

Provide growth value for the following compound: COc1cccc(OC)c1Oc1c(-c2nc3ccccc3s2)c(C)nn1-c1ccccc1
36.3% (inactive)

Quote growth reported for COc1ccc(/C=C/C(=O)c2ccc(NC(=O)CSc3nnc(-c4cc(-c5ccccc5)nc5ccccc45)n3-c3ccccc3)cc2)cc1 please.
96.3% (inactive)

Answer with the recorded growth of COc1cc2nc(Nc3cccc(F)c3)nc(Nc3cc(C)[nH]n3)c2cc1OC only.
-83.8% [20 µM] (active)

Supply reported growth belonging to this compound: O=C(CCCCCCCCC(=O)N/N=C\c1cc(Cl)ccc1O)N/N=C\c1cc(Cl)ccc1O
38.5% (inactive)

Entry C=NNc1ccccc1 needs its growth filled in; supply it.
91.6% (inactive)

Return the recorded growth value; entry: O[C@@H](c1cc(C(F)(F)F)nc2c(C(F)(F)F)cccc12)[C@H]1CCCCN1
66.1% (inactive)

====

tested on: CAKI-1 renal; experiment: NCI-60 one-dose screen, 48 h (100 = growth as untreated, 0 = no growth, -100 = all killed); conditions: 10 µM unless noted
Compounds without any hit were thinned out: in the full panel of roughly 83,000, 20% have a hit.
growth below 50% gives False; growth at or above it gives True.

Could you please find out whether O=C1CC2C=CCN2C=C1NC(=O)C1CCCCC1 (stereo unspecified) has growth that meets 50% or exceeds it?
True

====

Tested on: SF-539 CNS
Experiment: NCI-60 one-dose screen, 48 h
Conditions: 10 µM unless noted
Method: Cells are grown in 96 well plates and exposed to the test compound for 48 hours. Compounds are tested at a single concentration, which is 10^-5 M for most compounds. The reported endpoint is percent growth (GI% or GIPRCNT), where numbers from 0 - 100% represent growth inhibition, and numbers from -100% - 0 represent cell death. For example, a value of 40 represents 60% growth inhibition. A value of 0 means no net growth occurred over the course of the experiment. […]
This is part of a sample that, as a whole, favours compounds with a hit. Of some 83,000 tested, about 20% had one in any assay. Calls of active or inactive are those of the source. The calls were made as follows: active = growth percent below 10; inactive = the rest.
# valid calls are active, inactive; nothing else

Check out these entries, answers already filled in.
[
  {
    "COMPOUND": "COc1cc(C(=O)/C=C/c2c(-c3cccs3)nc3ccccn23)cc(OC)c1OC",
    "ASSIGNED_CATEGORY": "active"
  },
  {
    "COMPOUND": "Cc1nc2sc(C(=O)Nc3ccc(Cl)cc3)c(N)c2cc1C(O)c1ccccc1 (centres undefined)",
    "ASSIGNED_CATEGORY": "inactive"
  },
  {
    "COMPOUND": "CCOC(=O)c1c(-c2ccc(Cl)cc2)c(C#N)c2c(C#N)c(N)nn2c1N",
    "ASSIGNED_CATEGORY": "inactive"
  },
  {
    "COMPOUND": "O=C(/C=C/c1ccc(Br)cc1)c1ccc(-n2cc(CN3CCN(c4cc5c(cc4F)c(=O)c(C(=O)O)cn5C4CC4)CC3)nn2)cc1",
    "ASSIGNED_CATEGORY": "inactive"
  },
  {
    "COMPOUND": "Cc1cc(C(=O)Nc2cc(Nc3ncccc3-c3ncnc4nc[nH]c34)ccc2F)cc(C(F)(F)F)c1",
    "ASSIGNED_CATEGORY": "inactive"
  }
]

Shift focus to the following entry.
Tell me the assay call for CCCCc1oc2ccccc2c1C(=O)c1ccc(O)cc1 please.
inactive
